Tested on: CAKI-1 renal
test-details: NCI-60 one-dose screen, 48 h
settings: 10 µM unless noted
Experimental: Growth inhibition of the CAKI-1 human tumor cell line is measured as a screen for anti-cancer activity. Cells are grown in 96 well plates and exposed to the test compound for 48 hours. Compounds are tested at a single concentration, which is 10^-5 M for most compounds. The reported endpoint is percent growth (GI% or GIPRCNT), where numbers from 0 - 100% represent growth inhibition, and numbers from -100% - 0 represent cell death. For example, a value of 40 represents 60% growth inhibition. […]
The panel holds about 83,000 compounds, 20% with a hit somewhere; the sample as a whole holds those more often. Active and inactive are the calls of the source. How the source made its calls: active means growth percent below 10; inactive means the rest.
Choose one outcome from this list and give only that: Yes = active, No = inactive

# count of solved cases: 3
In [3]: df
Out[3]:
                            molecule_smiles  class_name
0  COc1ccc(-c2nc(SCC(=O)Nc3ccc(C(C)=O)cc3)[nH]c(=O)c2C#N)cc1          No
1                      N=C(N)N=Nc1ccc(O)cc1          No
2                 O=C(N/N=C\c1ccccc1O)C1CC1          No

query: Short answer needed: outcome of this test for "O=C(/C=C\c1ccc2c(c1)OCO2)/C=C/c1ccc2c(c1)OCO2" ?
result: No

query: Short answer needed: outcome of this test for "COC(=O)CCCCCn1c2ccccc2c2c3c(c4c5ccccc5[nH]c4c21)C(=O)N(O)C3=O" ?
result: Yes

query: Short answer needed: outcome of this test for "O=C1c2cc3c(cc2-c2c1c1ccc(F)cc1c(=O)n2CCCN1CCOCC1)OCO3" ?
result: No

query: Short answer needed: outcome of this test for "C=C(C)[C@@H]1CC[C@]2(C(=O)O)CC[C@]3(C)[C@H](CC[C@@H]4[C@@]5(C)C/C(=C/c6ccc(OC)cc6)C(=O)C(C)(C)[C@@H]5CC[C@]43C)[C@@H]12" ?
result: No

query: Short answer needed: outcome of this test for "CC[C@]12C=CCN3CC[C@@]4(c5cc([C@H]6CCC(=O)N6)c(OC)cc5N(C)[C@H]4[C@@](O)(C(=O)OC)[C@@H]1OC(C)=O)[C@@H]32" ?
result: No

query: Short answer needed: outcome of this test for "O=P(O)(c1ccccc1)c1ccccc1I" ?
result: No

Values were extracted from PubChem BioAssay (NCI).
